Assignment: determine reported TGI for the given molecules.
- Test system: SR leukemia
- Test Method Notes: NCI tumour cell line growth inhibition, 48 h

Worked examples, 3 molecules total:
>>> observed_result("CC1=CC[C@@H]2C(=O)C=CC=C[C@H]12.[C-]#[O+].[C-]#[O+].[C-]#[O+].[Fe]")
"> 100 µM"
>>> observed_result("COc1ccc(C2S/C(=C\\c3ccc([N+](=O)[O-])cc3)C(=O)N2NC(=O)Cc2ccccc2)cc1 (stereo not drawn)")
"> 100 µM"
>>> observed_result("Cc1cc(=O)[nH]c(Sc2ccc([N+](=O)[O-])cc2[N+](=O)[O-])n1")
"> 100 µM"

Working through the 2 molecules below one at a time, give TGI for each.
1. O=c1c2cc(Br)ccc2n(C2OC(CO)C(O)C(O)C2O)c(=S)n1-c1ccccc1 (stereo not drawn)
2. CC(C)(C)c1cc(C#N)c2c(c1)C(=O)OC2(c1ccccc1)c1ccccc1C#N (stereo not drawn)

["> 100 µM", "> 100 µM"]

Working through the 3 molecules below one at a time, give TGI for each.
1. COc1ccc2c3c1OC1C4(CCC5C(C2)N(CC2CC2)CCC351)OCCO4 (stereo not drawn)
2. CC(=O)O[C@H]1C(=O)[C@@]2(C)[C@H]([C@H](OC(=O)c3ccccc3)[C@]3(O)C[C@H](OC(=O)[C@H](O)[C@@H](NC(=O)C(C)(O)C(C)O)c4ccccc4)C(C)=C1C3(C)C)[C@]1(OC(C)=O)CO[C@@H]1C[C@@H]2O (stereo partly drawn)
3. CCOC(=O)/C=C(/C(=O)OCC)n1cc(C)c(=O)[nH]c1=O

1: > 100 µM; 2: > 15.9 µM; 3: 5.24 µM
